Biological target: Vascular endothelial growth factor receptor 2 (Homo sapiens)
Sequence (P35968 whole entry): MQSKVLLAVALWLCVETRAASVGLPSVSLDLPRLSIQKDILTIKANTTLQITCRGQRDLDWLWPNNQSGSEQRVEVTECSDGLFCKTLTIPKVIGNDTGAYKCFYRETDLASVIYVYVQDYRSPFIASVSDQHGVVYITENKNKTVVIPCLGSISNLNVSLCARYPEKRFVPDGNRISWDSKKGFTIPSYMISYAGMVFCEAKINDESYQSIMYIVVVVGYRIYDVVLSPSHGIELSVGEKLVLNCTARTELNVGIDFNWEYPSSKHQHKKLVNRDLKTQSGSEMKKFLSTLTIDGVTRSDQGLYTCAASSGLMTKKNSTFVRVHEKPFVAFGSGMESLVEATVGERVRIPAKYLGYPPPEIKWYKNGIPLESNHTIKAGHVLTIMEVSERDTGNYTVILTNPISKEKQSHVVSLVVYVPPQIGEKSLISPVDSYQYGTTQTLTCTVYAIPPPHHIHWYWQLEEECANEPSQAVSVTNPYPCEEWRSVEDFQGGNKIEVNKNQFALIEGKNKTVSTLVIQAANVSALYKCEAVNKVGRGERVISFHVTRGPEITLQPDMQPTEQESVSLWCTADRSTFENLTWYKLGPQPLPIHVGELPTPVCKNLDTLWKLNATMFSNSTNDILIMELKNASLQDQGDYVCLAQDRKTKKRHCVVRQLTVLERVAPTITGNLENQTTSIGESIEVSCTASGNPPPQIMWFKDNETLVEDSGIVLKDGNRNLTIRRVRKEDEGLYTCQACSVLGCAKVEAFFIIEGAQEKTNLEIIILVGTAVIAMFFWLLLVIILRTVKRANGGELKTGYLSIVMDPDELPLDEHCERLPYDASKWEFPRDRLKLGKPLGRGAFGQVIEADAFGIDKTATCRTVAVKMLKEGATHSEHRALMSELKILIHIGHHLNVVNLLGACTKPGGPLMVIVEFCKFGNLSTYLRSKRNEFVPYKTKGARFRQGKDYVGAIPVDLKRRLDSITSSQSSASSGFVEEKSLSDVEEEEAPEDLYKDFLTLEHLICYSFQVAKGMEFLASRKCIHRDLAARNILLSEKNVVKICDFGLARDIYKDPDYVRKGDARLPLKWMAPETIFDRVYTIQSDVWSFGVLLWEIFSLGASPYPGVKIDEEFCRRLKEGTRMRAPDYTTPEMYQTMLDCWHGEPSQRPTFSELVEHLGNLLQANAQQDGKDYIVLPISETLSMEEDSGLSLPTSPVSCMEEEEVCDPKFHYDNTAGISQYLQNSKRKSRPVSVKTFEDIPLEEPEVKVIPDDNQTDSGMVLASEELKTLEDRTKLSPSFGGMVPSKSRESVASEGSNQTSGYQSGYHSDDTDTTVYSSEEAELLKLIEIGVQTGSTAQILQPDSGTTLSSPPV
Assay: Inhibition of human recombinant VEGFR-2
test_readout: IC50 (nM)
Report as a plain number; the unit nM is understood.

- input_smiles: "Cc1c(OC[C@@H](C)O)cn2ncnc(Oc3ccc4[nH]c(CO)cc4c3F)c12"
  IC50, nM: 78

## Input I am curious: what IC50 value has been reported for "Cc1cc2c(F)c(Oc3ncnn4cc(OC[C@@H](C)OS(=O)(=O)O)c(C)c34)ccc2[nH]1" ?
## Output 28

====

System: Plasma
Test: Drug level in cynomolgus monkey plasma assessed as compound formation treated with [14C]brivanib alaninate at 10 mg/kg, po administered as single dose via gavage measured after 1 hr by HPLC analysis
Format: ADME, organism-based, Macaca fascicularis
Settings: in vivo
test_readout: Compound recovery (%)
Report as a plain number; the unit % is understood.

- input_smiles: "Cc1cc2c(F)c(Oc3ncnn4cc(OCC(=O)O)c(C)c34)ccc2[nH]1"
  test_readout: "Compound recovery"
  reported: 0.9

## Input I am curious: what Compound recovery value has been reported for "Cc1c(OC[C@@H](C)O)cn2ncnc(Oc3ccc4[nH]c(C(=O)O)cc4c3F)c12" ?
## Output 3.1

## Input I am curious: what Compound recovery value has been reported for "Cc1c(OC[C@@H](C)OS(=O)(=O)O)cn2ncnc(Oc3ccc4[nH]c(CO)cc4c3F)c12" ?
## Output 3

## Input I am curious: what Compound recovery value has been reported for "Cc1cc2c(F)c(Oc3ncnn4cc(OC[C@@H](C)O[C@@H]5O[C@H](C(=O)O)[C@@H](O)[C@H](O)[C@H]5O)c(C)c34)ccc2[nH]1" ?
## Output 7.2

## Input I am curious: what Compound recovery value has been reported for "Cc1cc2c(F)c(Oc3ncnn4cc(OC[C@@H](C)O)c(C)c34)ccc2[nH]1" ?
## Output 70.7

## Input I am curious: what Compound recovery value has been reported for "Cc1c(OS(=O)(=O)O)cn2ncnc(Oc3ccc4[nH]c(C(=O)O)cc4c3F)c12" ?
## Output 3.3

## Input I am curious: what Compound recovery value has been reported for "Cc1cc2c(F)c(Oc3ncnn4cc(OS(=O)(=O)O)c(C)c34)ccc2[nH]1" ?
## Output 2.9

## Input I am curious: what Compound recovery value has been reported for "Cc1cc2c(F)c(Oc3ncnn4cc(OC[C@@H](C)OS(=O)(=O)O)c(C)c34)ccc2[nH]1" ?
## Output 1.9

Values from ChEMBL document CHEMBL3526109
